target-under-test: Adenosine receptor A3 (Homo sapiens)
Sequence (P0DMS8 whole entry): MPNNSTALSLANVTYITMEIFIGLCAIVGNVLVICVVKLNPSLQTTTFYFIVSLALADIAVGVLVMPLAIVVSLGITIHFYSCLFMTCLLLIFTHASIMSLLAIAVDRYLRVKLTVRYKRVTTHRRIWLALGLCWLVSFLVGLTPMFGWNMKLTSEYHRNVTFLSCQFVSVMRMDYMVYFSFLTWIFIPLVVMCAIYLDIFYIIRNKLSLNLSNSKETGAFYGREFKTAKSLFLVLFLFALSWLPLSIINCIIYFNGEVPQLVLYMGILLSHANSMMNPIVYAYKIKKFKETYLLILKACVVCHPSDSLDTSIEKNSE
experimental-protocol: Displacement of [3H]NECA from human recombinant adenosine A3 receptor expressed in CHO cells
property-measured: Ki

> print(dat)
                              sample.smiles                     target.under.test  property.measured    result
1  CNC(=S)OC[C@H]1O[C@@H](n2cnc3c(NC4CCCC4)nc(Cl)nc32)[C@](C)(O)[C@@H]1O  Adenosine receptor A3 (Homo sapiens)                 Ki  > 100 µM
2  CNC(=S)OC[C@H]1O[C@@H](n2cnc3c(N[C@@H]4CCOC4)nc(Cl)nc32)[C@](C)(O)[C@@H]1O  Adenosine receptor A3 (Homo sapiens)                 Ki  > 100 µM
3  CNC(=O)OC[C@H]1O[C@@H](n2cnc3c(N[C@@H]4CCOC4)nc(Cl)nc32)[C@](C)(O)[C@@H]1O  Adenosine receptor A3 (Homo sapiens)                 Ki  > 100 µM
